From: ChEMBL document CHEMBL2029264

Parameter: Activity. Scope: all listed entries.
test system: Rattus norvegicus; test: Antihyperlipidemic activity in Triton WR-1339-induced hyperlipidemic rat assessed as decrease in plasma triglyceride level at 100 mg/kg, po relative to control; type: functional; design: scale not given: the % may be the effect or the level left
recordedMetric: Activity (%)

compound	recordedNumber
CCOC(=O)C(C)Oc1ccc(C(c2cn(CC)c3ccccc23)c2cn(CC)c3ccccc23)cc1 (stereo not given)	25
CCOC(=O)C(C)Oc1ccc(C(c2c(C)n(C)c3ccccc23)c2c(C)n(C)c3ccccc23)cc1 (stereo not given)	6
CCOC(=O)COc1ccc(C(c2cn(C)c3ccccc23)c2cn(C)c3ccccc23)cc1	9
CCOC(=O)C(C)(C)Oc1ccc(C(c2cn(CC)c3ccccc23)c2cn(CC)c3ccccc23)cc1	9
CCOC(=O)C(C)Oc1ccc(C(c2c(C)[nH]c3ccccc23)c2c(C)[nH]c3ccccc23)cc1 (stereo not given)	8

====

tested on: Rattus norvegicus; assay: Antihyperlipidemic activity in Triton WR-1339-induced hyperlipidemic rat assessed as decrease in plasma phospholipid level at 100 mg/kg, po relative to control; assay type: functional; design: scale not given: the % may be the effect or the level left

molecule	targetOrSystem	Activity
CCOC(=O)C(C)(C)Oc1ccc(C(c2c[nH]c3ccccc23)c2c[nH]c3ccccc23)cc1	Rattus norvegicus	9%
CCOC(=O)C(C)Oc1ccc(C(c2cn(C)c3ccccc23)c2cn(C)c3ccccc23)cc1 (centres undefined)	Rattus norvegicus	6%
CCOC(=O)CCCOc1ccc(C(c2cn(C)c3ccccc23)c2cn(C)c3ccccc23)cc1	Rattus norvegicus	14%
CCOC(=O)C(C)(C)Oc1ccc(C(c2cn(CC)c3ccccc23)c2cn(CC)c3ccccc23)cc1	Rattus norvegicus	9%
CCOC(=O)C(C)Oc1ccc(C(c2c(C)[nH]c3ccccc23)c2c(C)[nH]c3ccccc23)cc1 (centres undefined)	Rattus norvegicus	5%
CCOC(=O)C(C)Oc1ccc(C(c2cn(CC)c3ccccc23)c2cn(CC)c3ccccc23)cc1 (centres undefined)	Rattus norvegicus	23%
CCOC(=O)COc1ccc(C(c2c[nH]c3ccccc23)c2c[nH]c3ccccc23)cc1	Rattus norvegicus	25%
Cc1ccc(C)c(OCCCC(C)(C)C(=O)O)c1	Rattus norvegicus	35%
CCOC(=O)CCCOc1ccc(C(c2c[nH]c3ccccc23)c2c[nH]c3ccccc23)cc1	Rattus norvegicus	15%
